test system: Staphylococcus aureus ATCC 25923; assay: Broth microdilution MIC / MBC; assay type: cell-based; details: plating of non-turbid wells on TSA, 24 h, 37°C
Residues, ends and D or L forms follow the SMILES beside them.
metric-name: MBC

Please look up its MBC: CC[C@H](C)[C@H](NC(=O)[C@H](CC(C)C)NC(=O)[C@H](CCCCN)NC(=O)[C@@H](NC(=O)[C@H](CC(C)C)NC(=O)[C@@H](N)Cc1ccccc1)C(C)C)C(=O)N[C@@H](CC(C)C)C(N)=O [BiF] (H-FLVKLIL-NH2; N-terminus assumed)
> 250 µg/mL

* * *

system: Acinetobacter baumanii MT strain; test: Broth microdilution MIC / MBC; format: cell-based; conditions: plating of non-turbid wells on TSA, 24 h, 37°C
Residues, ends and D or L forms follow the SMILES beside them.
metric-name: MBC (µg/mL)
Use µg/mL as the unit, but write only the number.

Below, 2 compounds whose answers are already recorded.
CC[C@H](C)[C@H](NC(=O)[C@H](CCCCN)NC(=O)[C@H](CCCCN)NC(=O)[C@@H](NC(=O)[C@H](CC(C)C)NC(=O)[C@@H](N)Cc1ccccc1)C(C)C)C(=O)N[C@@H](CCCCN)C(=O)N[C@@H](CCCCN)C(=O)N[C@H](C(=O)N[C@@H](CC(C)C)C(=O)N[C@@H](CCCNC(=N)N)C(=O)N[C@@H](CCCNC(=N)N)C(N)=O)[C@@H](C)CC [BiF2_5K7K] (H-FLVKKIKKILRR-NH2; N-terminus assumed) :: 31.2
CC[C@H](C)[C@H](NC(=O)[C@H](CC(C)C)NC(=O)[C@H](CCCCN)NC(=O)[C@@H](NC(=O)[C@H](CC(C)C)NC(=O)[C@@H](N)Cc1ccccc1)C(C)C)C(=O)N[C@@H](CC(C)C)C(=O)N[C@@H](CCCCN)C(=O)N[C@H](C(=O)N[C@@H](CC(C)C)C(=O)N[C@@H](CCCNC(=N)N)C(=O)N[C@@H](CCCNC(=N)N)C(N)=O)[C@@H](C)CC [BiF2] (H-FLVKLILKILRR-NH2; N-terminus assumed) :: 62.5

Please look up its MBC: CC[C@H](C)[C@H](NC(=O)[C@H](CC(C)C)NC(=O)[C@H](CCCCN)NC(=O)[C@@H](NC(=O)[C@H](CC(C)C)NC(=O)[C@@H](N)Cc1ccccc1)C(C)C)C(=O)N[C@@H](CCCCN)C(=O)N[C@@H](CCCCN)C(=O)N[C@H](C(=O)N[C@@H](CC(C)C)C(=O)N[C@@H](CCCNC(=N)N)C(=O)N[C@@H](CCCNC(=N)N)C(N)=O)[C@@H](C)CC [BiF2_7K] (H-FLVKLIKKILRR-NH2; N-terminus assumed)
7.81

Numbers sourced from paper PMC11100219.
